B1: CPEB3 Ribozyme (parent)
chain: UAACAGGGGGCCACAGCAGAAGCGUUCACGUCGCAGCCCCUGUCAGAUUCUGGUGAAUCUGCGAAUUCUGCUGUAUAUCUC

variants of: B1; test: self-cleavage, relative activity (ratio to wild type); higher = more cleavage; in vitro, sequencing
Rule: self-cleavage under 0.3 gives Criterion not met, otherwise Criterion met.

Answer whether self-cleavage of G24A G52U is greater than or equal to 0.3. Criterion met

Is it the case that C12G A13U has self-cleavage reaching or exceeding 0.3? Criterion met

Assess whether reported self-cleavage for G16A G33U sits at 0.3 or higher. Criterion not met

Hi, just wondering whether G24A U25C shows self-cleavage of 0.3 or higher. Criterion not met

Please indicate if the recorded self-cleavage for A35G U80G meets or exceeds 0.3. Criterion met

Reported self-cleavage at or above 0.3? C11A U54A Criterion met

Confirm if self-cleavage reported for the variant A15U C81A is 0.3 or above. Criterion met

Item U54A U76A with self-cleavage of 0.3 or above? Criterion met

Has G52A U72C a recorded self-cleavage greater than or equal to 0.3? Criterion met

Given U60A U72A , state whether its self-cleavage is at least 0.3. Criterion met

# bool: self-cleavage of C32A U76C >= 0.3 Criterion not met
